Taken from patent US20250101041A1.

# testedTarget: human mAChR M4 (Homo sapiens)
# Construct: expressed in transfected cells; host or cells: CHO-K1 (American Type Culture Collection), stably expressing hM4 and Gqi5
# protocolNotes: mAChR M4 cell-based functional assay: calcium mobilization (Fluo-4, FDSS), potentiation of EC20 acetylcholine response in hM4-Gqi5 CHO-K1 cells
# measurementContext: CHO-K1, % ACh maximum at 30 μM; human M4
Assign Emax at 30 µM to each entry below.
Numbers only, in %.

Worked cases, answers included:
Exercise: Looking for the measured Emax at 30 µM of Cc1cc2nc(C(=O)N3CCC(c4cccnc4)C3)cc(=O)n2nc1N1CCc2ncc(C(F)(F)F)cc2C1 (stereo not drawn) , can you help?
Solution: 92

Exercise: Which value of Emax at 30 µM has been reported for `Cc1c(N2CCc3ncc(-c4cnn(C)c4C)cc3C2)nn2c(=O)ccnc2c1C` in the records?
Solution: 88

Exercise: Dear colleague, I am looking for the recorded Emax at 30 µM of the following compound: `Cc1cc2nccc(=O)n2nc1N1CCc2ncc(Nc3ccccc3Cl)cc2C1`
Solution: 95

Exercise: Fill blank: measured Emax at 30 µM of the compound `[2H]C1([2H])Cc2ncc(Nc3ccncc3C)cc2C([2H])([2H])N1c1nn2c(=O)ccnc2cc1C` is ____.
Solution: 66

Exercise: Any idea what Emax at 30 µM was measured for Cc1cc2nccc(=O)n2nc1N1CCc2ncc(NCC3CCCOC3)cc2C1 (stereo not drawn) ?
Solution: 87

Kindly review the next compound as well.
Exercise: Record request: Emax at 30 µM value, item Cc1cc2nccc(=O)n2nc1N1CCc2ncc(N3CCOC(c4cccc(F)c4)C3)cc2C1 (stereo not drawn)
Solution: 84

###

# testedTarget: human mAChR M4 (Homo sapiens, UniProt P08173)
# Construct: expressed in transfected cells; host or cells: CHO-K1 (American Type Culture Collection), stably expressing hM4 and Gqi5
# Sequence (P08173 1-479): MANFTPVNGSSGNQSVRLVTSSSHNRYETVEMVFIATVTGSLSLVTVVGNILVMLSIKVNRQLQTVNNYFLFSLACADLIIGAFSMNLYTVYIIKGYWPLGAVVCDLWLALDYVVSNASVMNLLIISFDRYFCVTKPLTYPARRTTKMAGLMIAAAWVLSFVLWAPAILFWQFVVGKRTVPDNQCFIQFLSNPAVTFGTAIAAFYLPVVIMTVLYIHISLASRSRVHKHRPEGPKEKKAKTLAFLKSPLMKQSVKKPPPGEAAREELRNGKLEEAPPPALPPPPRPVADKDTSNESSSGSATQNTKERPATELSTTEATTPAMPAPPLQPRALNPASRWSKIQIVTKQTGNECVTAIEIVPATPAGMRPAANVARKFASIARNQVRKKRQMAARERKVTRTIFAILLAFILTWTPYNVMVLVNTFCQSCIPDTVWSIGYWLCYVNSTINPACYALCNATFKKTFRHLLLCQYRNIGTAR
# protocolNotes: mAChR M4 cell-based functional assay: calcium mobilization (Fluo-4, FDSS), potentiation of EC20 acetylcholine response in hM4-Gqi5 CHO-K1 cells
# measurementContext: CHO-K1, % ACh maximum at 30 μM; human M4
measuredParameter: Emax at 30 µM
Enter the number, and then the unit.

Give one value of Emax at 30 µM per listed compound.
1. COCc1cc(=O)n2nc(N3CCc4ncc(-c5ccc(F)nc5)cc4C3)c(C)cc2n1
2. Cc1cc2ncc(Cl)c(=O)n2nc1N1CCc2ncc(Nc3ccncc3F)cc2C1
3. Cc1cc2nc(C(F)F)cc(=O)n2nc1N1CCc2ncc(-c3cnn(C)c3)cc2C1
4. Cc1c(N2CCc3ncc(N4CCC(F)(F)CC4)cc3C2)nn2c(=O)cc(C(F)F)nc2c1C
5. Cc1c(N2CCc3ncc(N4CCCn5nccc54)cc3C2)nn2c(=O)cc(C(F)F)nc2c1C
6. Cc1cc2nccc(=O)n2nc1N1CCc2ncc(Nc3ccc(Cl)nc3)cc2C1
7. Cc1c(N2CCc3ncc(-c4cccnc4)cc3C2)nn2c(=O)ccnc2c1C

Solution:
1: 82%; 2: 90%; 3: 92%; 4: 79%; 5: 91%; 6: 79%; 7: 89%

Hi team, please reply with Emax at 30 µM for each item in this list.
1. Cc1cc(=O)n2nc(N3CCc4ncc(-c5cc(F)nc(F)c5)cc4C3)c(C)c(C)c2n1
2. Cc1cc(=O)n2nc(N3CCc4ncc(-c5ccc(C)o5)cc4C3)c(C)c(C)c2n1
3. Cc1cc(=O)n2nc(N3CCc4ncc(-c5cccnc5)cc4C3)c(C)c(C)c2n1
4. Cc1cc2nccc(=O)n2nc1N1CCc2ncc(-c3cnc(Cl)cc3C(F)F)cc2C1

Solution:
1: 80%; 2: 88%; 3: 91%; 4: 78%

###

What Emax at 30 µM was measured for each of the following?
# testedTarget: human mAChR M4 (Homo sapiens, UniProt P08173)
# Construct: expressed in transfected cells; host or cells: CHO-K1 (American Type Culture Collection), stably expressing hM4 and Gqi5
# protocolNotes: mAChR M4 cell-based functional assay: calcium mobilization (Fluo-4, FDSS), potentiation of EC20 acetylcholine response in hM4-Gqi5 CHO-K1 cells
# measurementContext: CHO-K1, % ACh maximum at 30 μM; human M4
Answers are plain numbers, in %.

Here are 2 molecules together with their reported answers.
Exercise: Give the reported Emax at 30 µM for `Cc1cc(C#N)ncc1-c1cnc2c(c1)CN(c1nn3c(=O)ccnc3cc1C)CC2` (system: human mAChR M4 (Homo sapiens, UniProt P08173)).
Solution: 78

Exercise: API: value(readout=Emax at 30 µM, system=human mAChR M4 (Homo sapiens, UniProt P08173)) for record `Cc1c(N2CCc3ncc(-c4cncc(Cl)c4)cc3C2)nn2c(=O)ccnc2c1C`
Solution: 82

Value sought for every listed molecule: Emax at 30 µM.
1. Cc1cc2nccc(=O)n2nc1N1CCc2ncc(N3CCCc4cc(F)ccc43)cc2C1
2. Cc1cc(F)c(F)cc1-c1cnc2c(c1)CN(c1nn3c(=O)ccnc3cc1C)CC2
3. Cc1nc(-c2cccc(Nc3cnc4c(c3)CN(c3nn5c(=O)ccnc5cc3C)CC4)c2)cs1
4. Cc1c(N2CCc3ncc(-c4ccc(N5CCOCC5)nc4)cc3C2)nn2c(=O)ccnc2c1C
5. Cc1cc2nccc(=O)n2nc1N1CCc2ncc(-c3cnc(F)c(F)c3)cc2C1
6. Cc1cc(=O)n2nc(N3CCc4ncc(-c5ccccc5C(F)(F)F)cc4C3)c(C)c(C)c2n1
7. Cc1cc(=O)n2nc(N3CCc4ncc(-c5cnn(C)c5C)cc4C3)c(C)cc2n1

Solution:
89
85
59
88
53
57
99

Take each entry in turn and give its Emax at 30 µM.
1. Cc1cc(=O)n2nc(N3CCc4ncc(-c5cncnc5)cc4C3)c(C)c(C)c2n1
2. COc1cnccc1-c1cnc2c(c1)CN(c1nn3c(=O)ccnc3cc1C)CC2
3. COc1cc(-c2cnc3c(c2)CN(c2nn4c(=O)ccnc4cc2C)CC3)c(Cl)cn1
4. Cc1cc(=O)n2nc(N3CCc4ncc(-c5ccc6nccn6c5)cc4C3)c(C)c(C)c2n1
5. Cc1c(N2CCc3ncc(-c4ccc(C(F)(F)F)nc4)cc3C2)nn2c(=O)ccnc2c1C
6. Cc1ncccc1-c1cnc2c(c1)CN(c1nn3c(=O)ccnc3c(C)c1C)CC2
7. [2H]C1([2H])Cc2ncc(-c3ccnn3C)cc2C([2H])([2H])N1c1nn2c(=O)ccnc2cc1C
8. Cc1cc2nc(C(F)F)cc(=O)n2nc1N1CCc2ncc(N3CCO[C@H](C)C3)cc2C1

Solution:
[83, 84, 70, 79, 87, 93, 93, 90]

# batch size: 3; output Emax at 30 µM per entry
1. Cc1cc(=O)n2nc(N3CCc4ncc(-c5cc(F)cc(F)c5F)cc4C3)c(C)cc2n1
2. Cc1c(N2CCc3ncc(-c4cnn(C5CCCCO5)c4)cc3C2)nn2c(=O)ccnc2c1C (centres unmarked)
3. COCc1cc(=O)n2nc(N3Cc4cc(C(F)(F)F)cnc4C(C)C3)c(C)c(C)c2n1 (single isomer, unassigned)

Solution:
54
74
106

###

# testedTarget: human mAChR M4 (Homo sapiens)
# Construct: expressed in transfected cells; host or cells: CHO-K1 (American Type Culture Collection), stably expressing hM4 and Gqi5
# protocolNotes: mAChR M4 cell-based functional assay: calcium mobilization (Fluo-4, FDSS), potentiation of EC20 acetylcholine response in hM4-Gqi5 CHO-K1 cells
# measurementContext: CHO-K1, % ACh maximum at 30 μM; human M4
measuredParameter: Emax at 30 µM (%)
Numbers only, in %.

Check out these entries, answers already filled in.
Exercise: Recorded Emax at 30 µM for Cc1c(N2CCc3ncc(-c4cncc(C(F)(F)F)c4)cc3C2)nn2c(=O)cc(C(F)F)nc2c1C [Compound 1-154] with human mAChR M4 (Homo sapiens), please?
Solution: 80

Exercise: What measured Emax at 30 µM is associated with Cc1ncc(-c2cnc3c(c2)CN(c2nn4c(=O)c(Cl)cnc4cc2C)CC3)s1 [Compound 1-13] on human mAChR M4 (Homo sapiens)?
Solution: 79

Exercise: Recorded Emax at 30 µM for Cc1cc2nccc(=O)n2nc1N1CCc2ncc(-c3cnn(C4CC4)c3)cc2C1 [Compound 1-8] with human mAChR M4 (Homo sapiens), please?
Solution: 81

Please turn your attention to the following entry.
Exercise: Given the entry COc1cc(Cl)cc(Nc2cnc3c(c2)CN(c2nn4c(=O)ccnc4cc2C)CC3)c1 [Compound 2-82] , what Emax at 30 µM was observed with human mAChR M4 (Homo sapiens)?
Solution: 79
